target: Cst6 (UniProt P40535); assay: PBM E-score (8-mer binding enrichment) (E-score (-0.5 to 0.5)); higher = stronger / more preferred TF binding; settings: protein concentration: 200 nM; construct: GST-DNA-binding domain
Sequence (P40535 whole entry, the tested form may be a part): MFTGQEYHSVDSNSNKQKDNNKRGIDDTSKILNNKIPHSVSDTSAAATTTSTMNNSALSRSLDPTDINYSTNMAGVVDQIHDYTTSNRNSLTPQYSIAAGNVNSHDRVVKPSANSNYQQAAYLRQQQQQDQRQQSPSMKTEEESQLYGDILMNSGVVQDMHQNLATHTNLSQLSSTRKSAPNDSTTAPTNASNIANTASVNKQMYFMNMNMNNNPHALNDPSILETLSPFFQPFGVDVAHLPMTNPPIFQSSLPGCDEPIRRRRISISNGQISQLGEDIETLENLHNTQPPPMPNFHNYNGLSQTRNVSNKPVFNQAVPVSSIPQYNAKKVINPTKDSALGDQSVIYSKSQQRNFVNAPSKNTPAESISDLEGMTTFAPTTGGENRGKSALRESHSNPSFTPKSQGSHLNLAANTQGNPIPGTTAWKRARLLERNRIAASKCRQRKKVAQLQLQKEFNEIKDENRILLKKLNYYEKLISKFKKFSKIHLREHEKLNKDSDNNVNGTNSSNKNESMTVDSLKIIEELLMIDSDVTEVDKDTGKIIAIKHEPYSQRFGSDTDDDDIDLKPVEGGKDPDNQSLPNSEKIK
In all, about 33,000 sequences were measured (“E-score (-0.5 to 0.5)”: median about -0.016, highest 2% from about 0.31 on). What follows is part of a selection rich in the highest values, with near analogues and random picks from the rest.
Class assignment keyed on PBM E-score, ranges low class: < 0.004; middle class: ≥ 0.004 and < 0.2; high class: ≥ 0.2

Consider the worked cases shown below.
ATTGATGC ... high class
ACTTGCGC ... low class
CTATATTA ... high class
ATGATGTC ... high class
ACGGCTTC ... middle class
ATTGATGA ... high class

Exercise: Kindly state the category for this sequence: CCTGATGC
Solution: middle class

Exercise: Sort into band: CCGATGTA
Solution: low class

Exercise: Form: Item = GGGATGTA ; Class = ?
Solution: low class

Exercise: State the class of the sequence shown: AATTGTCG
Solution: middle class

Exercise: # bin label for AAGACGCG
Solution: low class

###

biological target: Cst6 (UniProt P40535); assay: PBM E-score (8-mer binding enrichment) (E-score (-0.5 to 0.5)); higher = stronger / more preferred TF binding; settings: protein concentration: 200 nM; construct: GST-DNA-binding domain
The full ranking holds about 33,000 sequences; the median of “E-score (-0.5 to 0.5)” is about -0.016, and the highest 2% start at about 0.31. What follows is part of a selection rich in the highest values, with near analogues and random picks from the rest.
Response key: YES means PBM E-score >= 0.06; NO means PBM E-score < 0.06.

Consider the worked cases shown below.
GTGTAAGA ... NO
AATGATGA ... YES
TGGGGAAA ... YES
CAGACAGC ... NO
TCGGCTCA ... NO
AAACGTCA ... YES

Exercise: For this sequence, is measured PBM E-score 0.06 or higher? ATTGATTG
Solution: YES

Exercise: Is the recorded value of PBM E-score equal to or greater than 0.06 for this sequence? TCAGCGCA
Solution: NO

Exercise: Please indicate if the recorded PBM E-score for CGACTAAC meets or exceeds 0.06.
Solution: NO

###

target: Cst6 (UniProt P40535); assay: PBM E-score (8-mer binding enrichment) (E-score (-0.5 to 0.5)); higher = stronger / more preferred TF binding; conditions: protein concentration: 200 nM; construct: GST-DNA-binding domain
In all, about 33,000 sequences were measured (“E-score (-0.5 to 0.5)”: median about -0.016, highest 2% from about 0.31 on). What follows is part of a selection rich in the highest values, with near analogues and random picks from the rest.
metric: PBM E-score

TTATTAAA ... 0.264
ATACGTCC ... 0.061
ATTCTGGA ... 0.122
ATATTTAC ... 0.175
ACGACGTC ... 0.218
GGAGATTA ... 0.13

Please look at the following sequence next.
Exercise: // output PBM E-score; input CAAAAAAA ; system Cst6 (UniProt P40535)
Solution: 0.32

###

molecular target: Cst6 (UniProt P40535); assay: PBM E-score (8-mer binding enrichment) (E-score (-0.5 to 0.5)); higher = stronger / more preferred TF binding; settings: protein concentration: 200 nM; construct: GST-DNA-binding domain
In all, about 33,000 sequences were measured (“E-score (-0.5 to 0.5)”: median about -0.016, highest 2% from about 0.31 on). The entries come from a sample that favours the highest values as a whole.
Label scheme for PBM E-score: lower bin (below -0.03), middle bin (-0.03 to below 0.1), upper bin (0.1 or more)

Field: example entries. Status: answers known.
ATCTCATG ... middle bin
AACCCACC ... middle bin
GTGTAATA ... upper bin
CTCAGGCC ... lower bin
GGGCCTGA ... lower bin
GTAGGACA ... middle bin
CTGTAATA ... upper bin
TCGAACCA ... lower bin

Here is the next item to consider.
Exercise: Please let me know in which category the item CGAAATCA belongs.
Solution: upper bin

###

biological target: Cst6 (UniProt P40535); test: PBM E-score (8-mer binding enrichment) (E-score (-0.5 to 0.5)); higher = stronger / more preferred TF binding; conditions: protein concentration: 200 nM; construct: GST-DNA-binding domain
Over roughly 33,000 sequences, “E-score (-0.5 to 0.5)” has its median near -0.016; the highest 2% begin near 0.31. The sample as a whole holds a higher share of the highest values than the screen did.
metric: PBM E-score

Worked examples follow.
CGTGACGC ... 0.436
CTCAATGA ... 0.14
GATCACTA ... 0.0963
AATCACTA ... 0.159
AGTCACTA ... 0.209
TAACATCA ... 0.399
TATTACGA ... 0.283
CGACATCG ... -0.122

Exercise: State recorded PBM E-score with Cst6 (UniProt P40535), entry ATCCCGAA , no comment.
Solution: 0.00888

Exercise: Write down measured PBM E-score (Cst6 (UniProt P40535)) for this sequence. ACGCTCCG
Solution: -0.119

Exercise: Under Cst6 (UniProt P40535): report PBM E-score of CAGGGCGA .
Solution: -0.00562

Exercise: Provide the reported PBM E-score (system: Cst6 (UniProt P40535)) for GAGGGCTA
Solution: -0.27

###

target: Cst6 (UniProt P40535); assay: PBM E-score (8-mer binding enrichment) (E-score (-0.5 to 0.5)); higher = stronger / more preferred TF binding; settings: protein concentration: 200 nM; construct: GST-DNA-binding domain
The full ranking holds about 33,000 sequences; the median of “E-score (-0.5 to 0.5)” is about -0.016, and the highest 2% start at about 0.31. Only a selection was taken, and the highest values are over-represented in it overall.
Note to self: class = bucket of PBM E-score, per low value (below -0.1), medium value (-0.1 to below 0.08), high value (0.08 or more)

The examples below pair each entry with its known result.
AGGGACGA ... medium value
CAGGGAGA ... low value
CCTAGCTA ... low value
CCTCATTC ... medium value
CATTATCG ... high value

Exercise: State the band of AGCTATCG
Solution: low value

Exercise: Note: place this sequence into its band. Item: AGTCATTC
Solution: medium value

Exercise: Which PBM E-score category applies to TATAGTAA here?
Solution: high value

###

Catalogue of PBM E-score values
target: Cst6 (UniProt P40535); assay: PBM E-score (8-mer binding enrichment) (E-score (-0.5 to 0.5)); higher = stronger / more preferred TF binding; details: protein concentration: 200 nM; construct: GST-DNA-binding domain
The full ranking holds about 33,000 sequences; the median of “E-score (-0.5 to 0.5)” is about -0.016, and the highest 2% start at about 0.31. Many of the other results were omitted from the sample, so the highest values are more common in it than they were.
I only need the number, thanks.

Use the examples below as a reference point.
CGGTCGTA ... -0.304
CCGTGACC ... -0.145
GCCATGAC ... 0.284

Exercise: Quote Cst6 (UniProt P40535) PBM E-score for entry ATCATAAA .
Solution: 0.195

Exercise: Report value: PBM E-score, system: Cst6 (UniProt P40535), sequence: CTGACATC
Solution: 0.307

Exercise: Give Cst6 (UniProt P40535) PBM E-score for the following sequence: AATATGTA
Solution: 0.211

Exercise: Would you please give the reported PBM E-score of CTCTTAAA with Cst6 (UniProt P40535)?
Solution: 0.112

Exercise: State, for Cst6 (UniProt P40535), measured PBM E-score of the sequence listed here: CTCATAGA
Solution: 0.0631

Exercise: Name the recorded PBM E-score of CATCGTAG , assay system Cst6 (UniProt P40535).
Solution: 0.00214

Exercise: # return PBM E-score for GGGGTAAA , test system: Cst6 (UniProt P40535)
Solution: 0.0414

Exercise: Give Cst6 (UniProt P40535) PBM E-score for the following sequence: CTCATTAA
Solution: 0.0741

###

molecular target: Cst6 (UniProt P40535); assay: PBM E-score (8-mer binding enrichment) (E-score (-0.5 to 0.5)); higher = stronger / more preferred TF binding; conditions: protein concentration: 200 nM; construct: GST-DNA-binding domain
In all, about 33,000 sequences were measured (“E-score (-0.5 to 0.5)”: median about -0.016, highest 2% from about 0.31 on). The list comes from a sample in which the highest values are over-represented; it also holds close analogues and randomly drawn sequences.
metric: PBM E-score
Hey, just send me the number, nothing else.

GCGAAAAA ... 0.197
ATTTTACC ... 0.264
ATTCCGCG ... 0.129
ATTTTATA ... 0.321
GTTTTATA ... 0.122
ATTACATC ... 0.433

Exercise: Answer with reported PBM E-score of AATTTTTA
Solution: 0.228

Exercise: Please list PBM E-score recorded for the sequence ATTACATA
Solution: 0.396

Exercise: Output PBM E-score of ATGACATA
Solution: 0.45
